# tested_system: wt human JAK1, catalytic site (Homo sapiens)
# Construct: wt human JAK1, catalytic site; purchased ThermoFisher
# Sequence (P23458 875-1153 limits assumed): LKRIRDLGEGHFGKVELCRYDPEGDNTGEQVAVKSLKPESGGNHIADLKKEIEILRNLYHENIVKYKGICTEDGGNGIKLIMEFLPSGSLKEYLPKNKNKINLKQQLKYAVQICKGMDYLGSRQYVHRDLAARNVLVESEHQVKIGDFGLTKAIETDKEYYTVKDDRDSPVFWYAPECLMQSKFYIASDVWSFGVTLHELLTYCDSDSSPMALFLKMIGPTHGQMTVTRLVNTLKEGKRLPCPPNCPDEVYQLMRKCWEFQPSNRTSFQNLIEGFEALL
# assay_procedure: HTRF KinEASE assay, JAK1
# Format: biochemical
# assay_context: 2.5 μM ATP; read-out: IC50, Activity Toward JAK1
pIC50: −log10 of the molar value.
observed_property: pIC50

# molecule, reported_result
records = [
    ("N#CC1CN(C(=O)c2ccc(Nc3cn(-c4c(Cl)cccc4Cl)nc3C(N)=O)cc2)C1", "7.00 to 8.00"),
    ("Cc1ncnn1-c1ccc(Nc2cn(-c3c(Cl)cccc3Cl)nc2C(N)=O)nc1", "6.00 to 7.00"),
    ("NC(=O)c1nn(-c2c(F)cccc2C(F)(F)F)cc1Nc1ccc(C(=O)N2CC3(CCC3)C2)cc1", "6.00 to 7.00"),
    ("Cc1cn(-c2ccc(Nc3cn(-c4c(Cl)cccc4Cl)nc3C(N)=O)cc2)nc1C", "6.00 to 7.00"),
    ("NC(=O)c1nn(-c2c(Cl)cccc2Cl)cc1Nc1ccc(C(=O)N2CC3(CCC3)C2)cc1", "> 8.00"),
    ("Cc1cc(Nc2cn(-c3c(F)cccc3F)nc2C(N)=O)nc(N)n1", "6.00 to 7.00"),
    ("NC(=O)c1nn(-c2c(Cl)cccc2Cl)cc1Nc1cn[nH]c1", "6.00 to 7.00"),
    ("CN=S1(=O)CCN(C(=O)c2ccc(Nc3cn(-c4c(Cl)cccc4Cl)nc3C(N)=O)cc2)CC1", "7.00 to 8.00"),
    ("NC(=O)c1nn(-c2c(Cl)cccc2Cl)cc1Nc1ccc(CC(=O)N2CCOCC2)nc1", "7.00 to 8.00"),
    ("NC(=O)c1nn(-c2c(Cl)cccc2Cl)nc1Nc1ccc(-n2nncc2C(F)(F)F)cn1", "7.00 to 8.00"),
    ("N#Cc1cc(Cl)c(-n2nc(Nc3ccc(C(=O)N4CCC(F)C4)cc3)c(C(N)=O)n2)c(Cl)c1 (stereo in doubt)", "6.00 to 7.00"),
    ("CCc1ccnn1-c1ccc(Nc2cn(-c3c(F)cccc3F)nc2C(N)=O)cc1", "6.00 to 7.00"),
    ("CCc1nc(C(F)(F)F)nn1-c1ccc(Nc2cn(-c3c(F)cccc3F)nc2C(N)=O)cc1", "6.00 to 7.00"),
    ("NC(=O)c1nn(-c2c(Cl)cccc2Cl)cc1Nc1ccc(C(=O)N2CCN(CC3CC3)CC2)cc1", "7.00 to 8.00"),
    ("Cc1cnnc(-c2ccc(Nc3cn(-c4c(Cl)cccc4Cl)nc3C(N)=O)cc2)c1C", "6.00 to 7.00"),
    ("NC(=O)c1nn(-c2c(Cl)cccc2Cl)nc1Nc1ccc(C(=O)N2CC(F)C2)cn1", "7.00 to 8.00"),
    ("NC(=O)c1nn(-c2c(Cl)cccc2Cl)cc1Nc1ccc(C(=O)N2CCN(CC(F)F)CC2)cc1", "6.00 to 7.00"),
    ("NC(=O)c1nn(-c2c(Cl)cccc2Cl)cc1Nc1ccc(C(=O)N2CC[C@H](N)C2)nc1", "6.00 to 7.00"),
    ("CCn1cc(C(F)(F)F)nc1-c1ccc(Nc2cn(-c3c(Cl)cccc3Cl)nc2C(N)=O)cc1", "7.00 to 8.00"),
    ("Cn1nnnc1-c1ccc(Nc2nn(-c3c(Cl)cccc3Cl)nc2C(N)=O)cc1", "7.00 to 8.00"),
    ("NC(=O)c1nn(-c2c(Cl)cccc2Cl)cc1Nc1ccc(C(=O)NCCF)cc1", "7.00 to 8.00"),
    ("Cc1c(C#N)cnn1-c1ccc(Nc2cn(-c3c(Cl)cccc3Cl)nc2C(N)=O)cc1", "6.00 to 7.00"),
    ("NC(=O)c1nn(-c2c(Cl)cc(F)cc2Cl)nc1Nc1ccc(C(=O)N2CCSCC2)cc1", "> 8.00"),
    ("Cc1cncnc1-c1ccc(Nc2cn(-c3c(Cl)cccc3Cl)nc2C(N)=O)cc1", "7.00 to 8.00"),
    ("NC(=O)c1nn(-c2c(Cl)cccc2Cl)nc1Nc1ccc(-c2nnn[nH]2)cc1", "7.00 to 8.00"),
    ("NC(=O)c1nn(-c2c(Cl)cccc2Cl)nc1Nc1ccc(-c2nncn2CC(F)F)cc1", "> 8.00"),
    ("NC(=O)c1nn(-c2c(Cl)cccc2Cl)cc1Nc1ccc(C(=O)N2CC(C(N)=O)C2)cc1", "> 8.00"),
    ("NC(=O)c1nn(-c2c(Cl)cccc2Cl)cc1Nc1cnn(-c2ncccc2F)c1", "7.00 to 8.00"),
    ("NC(=O)c1nn(-c2c(Cl)cccc2Cl)cc1Nc1ccc(C(=O)N2CC[C@@H](N3CCCC3)C2)cc1", "6.00 to 7.00"),
    ("NC(=O)c1nn(-c2c(Cl)cccc2Cl)nc1Nc1ccc(C(=O)N2CC(O)C2)cc1", "7.00 to 8.00"),
    ("COCCc1ncnn1-c1ccc(Nc2cn(-c3c(Cl)cccc3Cl)nc2C(N)=O)cc1", "7.00 to 8.00"),
    ("N#CC1CN(C(=O)c2ccc(Nc3nn(-c4c(Cl)cccc4Cl)nc3C(N)=O)nc2)C1", "7.00 to 8.00"),
]

###

# tested_system: wt human JAK1, catalytic site (Homo sapiens)
# Construct: wt human JAK1, catalytic site
# assay_procedure: HTRF KinEASE assay, JAK1
# assay_context: 2.5 μM ATP; read-out: IC50, Activity Toward JAK1
pIC50: −log10 of the molar value.

# chemical_smiles, pIC50
measured = [
    ("NC(=O)c1nn(-c2c(F)cccc2F)cc1Nc1ccc(C(=O)NC2CCOCC2)cc1", "6.00 to 7.00"),
    ("N#Cc1cccc(Cl)c1-n1cc(Nc2ccc(C(=O)N3CC[C@@H](F)C3)cc2)c(C(N)=O)n1", "7.00 to 8.00"),
    ("CCn1nc(C(F)(F)F)nc1-c1ccc(Nc2cn(-c3c(F)cccc3F)nc2C(N)=O)cc1", "7.00 to 8.00"),
    ("NC(=O)c1nn(-c2c(Cl)cccc2Cl)cc1Nc1ccc(C(=O)N2CC[C@H](F)C2)cn1", "6.00 to 7.00"),
    ("NC(=O)c1nn(-c2c(Cl)cccc2Cl)nc1Nc1ccc(C(=O)N2CCSCC2)cc1", "> 8.00"),
    ("NC(=O)c1nn(-c2c(Cl)cccc2Cl)cc1Nc1ccc(C(=O)N2CCCC2)nc1", "6.00 to 7.00"),
    ("Cn1nnnc1-c1ccc(Nc2cn(-c3c(Cl)cccc3Cl)nc2C(N)=O)nc1", "7.00 to 8.00"),
    ("NC(=O)c1nn(-c2c(Cl)cccc2Cl)cc1Nc1ccc(C(=O)N2CCSCC2)cc1", "> 8.00"),
    ("Cc1cnc(C)c(-n2cc(Nc3cn(-c4c(Cl)cccc4Cl)nc3C(N)=O)cn2)n1", "6.00 to 7.00"),
    ("NC(=O)c1nn(-c2c(Cl)cccc2Cl)cc1Nc1ccc(C(=O)N2CCOCC2)nc1", "7.00 to 8.00"),
    ("CC1(C)CN(C(=O)c2ccc(Nc3cn(-c4c(Cl)cccc4Cl)nc3C(N)=O)cn2)C1", "6.00 to 7.00"),
    ("NC(=O)c1nn(-c2c(Cl)cccc2Cl)cc1Nc1ccc(-c2nc(C(F)(F)F)cn2CCO)cc1", "6.00 to 7.00"),
    ("Cc1ccnn1-c1ccc(Nc2cn(-c3c(Cl)cccc3Cl)nc2C(N)=O)cc1", "7.00 to 8.00"),
    ("Cc1ncnn1-c1ccc(Nc2cn(-c3c(Cl)cccc3Cl)nc2C(N)=O)cc1", "7.00 to 8.00"),
    ("Cn1nncc1-c1ccc(Nc2cn(-c3c(Cl)cccc3Cl)nc2C(N)=O)cc1", "6.00 to 7.00"),
    ("CN(C)CCc1nnnn1-c1ccc(Nc2cn(-c3c(Cl)cccc3Cl)nc2C(N)=O)cc1", "7.00 to 8.00"),
    ("N#Cc1cccc(Cl)c1-n1cc(Nc2ccc(C(=O)N3CCOCC3)cc2)c(C(N)=O)n1", "7.00 to 8.00"),
    ("NC(=O)c1nn(-c2c(Cl)cccc2Cl)nc1Nc1ccc(C(=O)N2CC(F)(F)C(F)(F)C2)cn1", "6.00 to 7.00"),
    ("COCCc1nc(C(F)(F)F)nn1-c1ccc(Nc2cn(-c3c(Cl)cccc3Cl)nc2C(N)=O)cc1", "7.00 to 8.00"),
    ("NC(=O)c1nn(-c2c(Cl)cccc2Cl)nc1Nc1ccc(CC(=O)N2CC(F)C2)nc1", "7.00 to 8.00"),
    ("N#Cc1cccnc1-c1ccc(Nc2cn(-c3c(Cl)cccc3Cl)nc2C(N)=O)cc1", "7.00 to 8.00"),
    ("NC(=O)c1nn(-c2c(Cl)cccc2Cl)cc1Nc1ccc(-n2nncc2C(F)(F)F)cc1", "6.00 to 7.00"),
    ("Cc1cccnc1-c1ccc(Nc2cn(-c3c(Cl)cccc3Cl)nc2C(N)=O)cn1", "6.00 to 7.00"),
    ("Cc1ccnnc1-c1ccc(Nc2cn(-c3c(F)cccc3F)nc2C(N)=O)cc1", "6.00 to 7.00"),
    ("CCc1cnnn1-c1ccc(Nc2cn(-c3c(Cl)cccc3Cl)nc2C(N)=O)cc1", "7.00 to 8.00"),
    ("NC(=O)c1nn(-c2c(Cl)cccc2Cl)cc1Nc1ccc(-n2cnc(Cl)n2)cc1", "6.00 to 7.00"),
    ("NC(=O)c1nn(-c2c(F)cccc2Cl)cc1Nc1ccc(C(=O)N2CCOCC2)cc1", "7.00 to 8.00"),
    ("CN(C)[C@H]1CCN(C(=O)c2ccc(Nc3nn(-c4c(Cl)cccc4Cl)nc3C(N)=O)cc2)C1", "> 8.00"),
    ("CC(C)n1cnnc1-c1ccc(Nc2cn(-c3c(Cl)cccc3Cl)nc2C(N)=O)cc1", "7.00 to 8.00"),
    ("CN1CCN(C(=O)c2ccc(Nc3cn(-c4c(F)cccc4Cl)nc3C(N)=O)cc2)CC1", "7.00 to 8.00"),
    ("NC(=O)c1nn(-c2c(Cl)cccc2Cl)cc1Nc1ccc(C(=O)N2CCCCCC2)cc1", "6.00 to 7.00"),
    ("NC(=O)c1nn(-c2c(Cl)cccc2Cl)nc1Nc1ccc(-n2cc3c(n2)CCOC3)cc1", "6.00 to 7.00"),
]
